This collection of values is drawn from ChEMBL document CHEMBL1140094.

Overview of reported viability, % of control at 1 µM across a group of compounds:
tested on: PANC-1; experiment: Growth inhibition of human Panc1 cells at 1 uM after 96 hrs by MTT assay relative to control; assay type: functional; details: PANC-1, 96 h, values are per cent of control

molecular_string=C=CCNC(=O)c1cccc(Oc2ccc(NC(=O)NC(=O)c3ccccc3[N+](=O)[O-])cc2)c1 measurement_label="viability, % of control at 1 µM" test_value=76%
molecular_string=C=CCNC(=O)c1cccc(Sc2ccc(NC(=O)NC(=O)c3ccccc3[N+](=O)[O-])cc2)c1 measurement_label="viability, % of control at 1 µM" test_value=70%

Prompt: Suppose we examine the compound "O=C(NC(=O)c1ccccc1Cl)Nc1ccc(Sc2cccc(C(=O)NCc3ccccc3)c2)cc1" ; what viability, % of control at 1 µM value has been reported?
Completion: 86%

Prompt: Suppose we examine the compound "C=CCNC(=O)c1cccc(Oc2ccc(NC(=O)NC(=O)c3ccccc3)cc2)c1" ; what viability, % of control at 1 µM value has been reported?
Completion: 66%

Prompt: Suppose we examine the compound "C=CCNC(=O)c1cccc(Sc2ccc(NC(=O)NC(=O)c3cc(OC)cc(OC)c3)cc2)c1" ; what viability, % of control at 1 µM value has been reported?
Completion: 62%
